- Assay target: His-tagged Human KRAS^G12D (Homo sapiens (Human), UniProt P01116, G12D)
- Sequence (P01116-2 other isoform, or with tags, fused parts or gaps G12D): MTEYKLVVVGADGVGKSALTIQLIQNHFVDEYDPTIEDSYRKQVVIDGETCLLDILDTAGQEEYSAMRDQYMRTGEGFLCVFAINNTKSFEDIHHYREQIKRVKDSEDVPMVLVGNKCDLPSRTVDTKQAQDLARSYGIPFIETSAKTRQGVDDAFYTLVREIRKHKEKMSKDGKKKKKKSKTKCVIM
- Test name: HTRF KRAS G12D GTP binding assay
- Condition label: displacement of GTP-Red tracer
pIC50: −log10 of the molar value.
Experimental readout: pIC50

>>> print(df.to_string())
                                   molecule  experimental_readout  modifier_sign  measured_result
0  CCc1c(F)ccc2cc(O)cc(-c3ncc4c(N5CCC[C@]6(CCO6)C5)nc(OCC5(CN6CCCC6)CC5)nc4c3F)c12 [Compound 10a]                 pIC50              =             8.16
1  CCc1c(F)ccc2cc(O)cc(-c3ncc4c(N5CCC[C@]6(CCO6)C5)nc(OCC5(CC(N)=O)CC5)nc4c3F)c12 [Compound 31a]                 pIC50              =             6.29
2  CCc1c(F)ccc2cc(O)cc(-c3ncc4c(N5CCC[C@]6(CCO6)C5)nc(OCC5(CN6CC(F)(F)C6)CC5)nc4c3F)c12 [Compound 28a]                 pIC50              =             6.80
3  CCc1c(F)ccc2cc(O)cc(-c3ncc4c(N5CCC(C(C)=O)CC5)nc(OC[C@@]56CCCN5C[C@H](F)C6)nc4c3F)c12 [Compound 49]                 pIC50              <             6.00
4  CCc1c(F)ccc2cc(O)cc(-c3ncc4c(N5CC(F)(F)C[C@H]5CO)nc(OC[C@@]56CCCN5C[C@H](F)C6)nc4c3F)c12 [Compound 21]                 pIC50              <             5.00
5  CCc1c(F)ccc2cc(O)cc(-c3ncc4c(N5CC6(CCC6=O)C5)nc(OC[C@@]56CCCN5C[C@H](F)C6)nc4c3F)c12 [Compound 112]                 pIC50              <             6.00

The reported measurements were obtained from patent US20240239813A1.
